Source listed as the supplement of paper PMC8975748.

# Test system: Saccharomyces cerevisiae BY4741 SeMeCo community
# protocol-details: z-score of subpopulation abundance vs DMSO median, subpopulation auxotrophic for L; higher = larger share of this subpopulation than in DMSO controls
# run-conditions: 10 µM; 24 h; SM minimal medium; subpopulation (auxotrophy): L
Counter-ions that a name gives are not always drawn.
For each of the compounds below, state its z-score of subpopulation abundance.
Give bare numbers.

# map each compound to its z-score of subpopulation abundance
1. COc1ccc2c(c1)c(CC(=O)OCC(=O)O)c(C)n2C(=O)c1ccc(Cl)cc1 [Acemetacin]
2. Cc1cccc(C#Cc2ccccc2)n1
3. CC(C)COCC(CN(Cc1ccccc1)c1ccccc1)N1CCCC1 (centres undefined) [Bepridil hydrochloride]
4. CCC(C)C1OC2(CCC1C)CC1CC(CC=C(C)C(OC3CC(OC)C(OC4CC(OC)C(O)C(C)O4)C(C)O3)C(C)C=CC=C3COC4C(O)C(C)=CC(C(=O)O1)C34O)O2 (centres undefined) [Ivermectin]
5. O=C(O)Cc1ccccc1Nc1c(Cl)cccc1Cl [Diclofenac acid]
6. OB1OCc2cc(F)ccc21 [Tavaborole (AN-2690)]

[-1.06, 0.06, 0.85, -0.07, 0.08, 0.22]

Parameter requested: z-score of subpopulation abundance. Apply to each item below.
1. CC1=Nc2ccc(Cl)cc2S(=O)(=O)N1 [Diazoxide]
2. CN1CCC(=C2c3ccccc3C=Cc3ccccc32)CC1 [Cyproheptadine hydrochloride]
3. O=c1[nH]c2ccccc2n1CCN1CCN(c2cccc(C(F)(F)F)c2)CC1 [Flibanserin]

1. -0.67
2. 0.25
3. -0.73

====

# Test system: Saccharomyces cerevisiae BY4741 SeMeCo community
# protocol-details: z-score of subpopulation abundance vs DMSO median, subpopulation auxotrophic for HM; higher = larger share of this subpopulation than in DMSO controls
# run-conditions: 10 µM; 24 h; SM minimal medium; subpopulation (auxotrophy): HM
Where a name gives a salt, the structure may show the parent alone.
Class definitions on z-score of subpopulation abundance: label 0 (below -0.2), label 1 (-0.2 to below 0.7), label 2 (0.7 or more)

# example entries with known answers
{"compound": "N=C(N)NC(=O)c1nc(Cl)c(N)nc1N [Amiloride HCl dihydrate]", "assigned-label": "label 2"}
{"compound": "CCCN[C@H]1CCc2nc(N)sc2C1 [Pramipexole dihydrochloride]", "assigned-label": "label 0"}
{"compound": "COc1ccnc(C[S+]([O-])c2nc3cc(OC(F)F)ccc3[nH]2)c1OC (stereo unspecified)", "assigned-label": "label 0"}
{"compound": "CC/C(=C(\\c1ccccc1)c1ccc(OCCN(C)C)cc1)c1ccccc1 [Tamoxifen]", "assigned-label": "label 2"}
{"compound": "N=C(N)NC(=N)N1CCOCC1 [Moroxydine HCl]", "assigned-label": "label 1"}
{"compound": "CC1(C)CC[C@]2(C(=O)O)CC[C@]3(C)C(=CC[C@@H]4[C@@]5(C)CC[C@H](O)C(C)(C)[C@@H]5CC[C@]43C)[C@@H]2C1", "assigned-label": "label 2"}
{"compound": "COC(=O)Nc1nc2cc(Sc3ccccc3)ccc2[nH]1", "assigned-label": "label 1"}
{"compound": "C=CCN1CCCC1CNC(=O)c1cc2nn[nH]c2cc1OC (stereo unspecified) [Alizapride HCl]", "assigned-label": "label 0"}

Now for a further compound.
Hello team, could you let me know which band the following compound falls into: "CCN1CCN(c2cc3c(cc2F)c(=O)c(C(=O)O)cn3C2CC2)CC1"
label 0
